The values you see were collected from the nanobody polyreactivity screen of Harvey et al. (2022).

Test: yeast display, Sf9 membrane polyspecificity reagent, FACS + sequencing; frameworks hold sequencing errors
readout_kind: polyreactivity (PSR sort gate)

chain_sequence: QVQLVESGGGLVQAGGSLRLSCAASGRTFYQYGMGWYRQAPGKERELVAAISDSGGGTYYADSVKGRFTISRDNAKHTVYLQMNSLKPEDTAVYFCAATYVGPRRRYYYWGQGTQVTVSS
polyreactivity (PSR sort gate): high polyreactivity
--
chain_sequence: QVQLVDSGGGLVQAGGSLSLSCAASGNIFDYNVMGWYRQAPGKERELVAAITASAVRTYYADSVKGRFTISRDNAKNTVYLQMNSLKPEDIAVYYCGKRRIVRQRSYYYWGQGTQVTVSS
polyreactivity (PSR sort gate): low polyreactivity
--
chain_sequence: QVQLVESGGGLVQAGGSLRLSCAASGSILFTNAMGWYRQAPGKERELVAAISSGGSTYYADSVKGRFTISRDNAKNTVYLQMNSLKPEDTAVYYCAADQLNVGREYVEYDFWGQGTQVTVSS
polyreactivity (PSR sort gate): low polyreactivity
--
chain_sequence: QVQLVESGGGLVQAGGSLRLSCAASGRTFYYYAMGGYRQAPGKERELVAAIRGGGGSTYADSVKGRFTISRDNAKNTVYLQMNSLKPEDTAVYYCNVVRTGRYPGFLTFDYWGQGTQVTVSS
polyreactivity (PSR sort gate): high polyreactivity
--
chain_sequence: QVQLVESGGGLVQAGGSLRLSCAASGSTLYYNAMGWYRQAPGKERELVAAISWSGGSTYYADSVKGRFTISRDNAKNTVYLQMNSLKPEDTAVYYCAADQSTVLDVGSWGQGTQVTVSS
polyreactivity (PSR sort gate): low polyreactivity
--
chain_sequence: QVQLVESGGGLVQAGGSLRLSCPASGSIFDPYAMGWYRQAPGKERELVAAITASGSSTYYADSVKGRFTISRDNAKNTVYLQMNSLKPEDTAVYYCAADRAKWEYLLSWLGYDYWGQGTQVTVSS
polyreactivity (PSR sort gate): low polyreactivity
--
chain_sequence: QVQLVESGGGLVQAGGSLRLSCAASGYTSYRYAMGWYRQAPGKERELVAAINWSGSSTYYADSVKGRFTISRDYAKNTVYLQMNSLKPEDTAVYYCAARRYRSPIGGYDYWGQGTQVTVSS
polyreactivity (PSR sort gate): high polyreactivity
--
chain_sequence: QVQLVESGGGLVQAGGSLRLSCAASGSTYYGNAMGWYRQAPGKERQLVAAIRSRGGSTYYADSVKGRFTISRDNAKNTVYLQMNSLKPEDPAVYYCDAKQPSWKYAYYYWGQGTQVTVSS
polyreactivity (PSR sort gate): high polyreactivity
--
chain_sequence: QVQLVESGGGLVQAGGSLRLSCAASGFTFSLYGMGWYRQAPGKERELVAAIRSGGSTNYADSVKGRFTISRDNAKNTVYLQMNSLKPEDTAVYYCATDIHSVHNNRDKHDYDYWGQGTQVTVSS
polyreactivity (PSR sort gate): low polyreactivity
--
chain_sequence: QVQLVESGGGLVQAGGSLRLSCAASGSTYRYTMGWYRPAPGKERELVAAITGSAGSTYYADSVKGRFTISRDNAKNTVYLQMHSLKPEDTAVYYCNKVRPRKFWDYYYWGQGTQVTVSS
polyreactivity (PSR sort gate): high polyreactivity

*Q* // fetch polyreactivity (PSR sort gate) given entry `QDQLVESGGALVQAGRSLRLSCAASGIIYIYYAMGWYIQAPGKERELVAAISGSGDSTYYADSVKGRFTISRDNAKNTVYLQMNSLKPEDTAVYYCARRSPNPYSIYYYWGQGTQVTVSS`
*A* high polyreactivity
